# targetDesc: UniProtKB P21728
# Sequence (P21728 whole entry): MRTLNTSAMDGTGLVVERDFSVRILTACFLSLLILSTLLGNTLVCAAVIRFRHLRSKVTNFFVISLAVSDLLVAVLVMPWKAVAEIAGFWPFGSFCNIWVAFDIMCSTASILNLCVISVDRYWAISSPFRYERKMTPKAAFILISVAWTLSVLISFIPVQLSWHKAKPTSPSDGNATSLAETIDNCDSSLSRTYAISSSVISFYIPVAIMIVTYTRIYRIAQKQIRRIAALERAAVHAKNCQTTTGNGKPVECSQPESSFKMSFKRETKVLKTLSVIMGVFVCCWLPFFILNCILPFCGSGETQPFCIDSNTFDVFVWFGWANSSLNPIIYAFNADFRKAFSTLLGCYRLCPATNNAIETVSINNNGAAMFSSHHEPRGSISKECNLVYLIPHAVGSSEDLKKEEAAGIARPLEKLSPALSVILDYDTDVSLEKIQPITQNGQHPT
# Type: functional, cell-based
quantityMeasured: AC50

Example molecules with recorded AC50:
| molecule | quantityMeasured | reportedMeasurement |
| --- | --- | --- |
| NNC(=O)c1ccncc1 [ISONIAZID] | AC50 | > 30 µM |
| C[N+](C)(C)CCOP(=O)(O)OP(=O)([O-])OC[C@H]1O[C@@H](n2ccc(N)nc2=O)[C@H](O)[C@@H]1O [CITICOLINE] | AC50 | > 30 µM |
| c1ccc(C2(N3CCCCC3)CCCCC2)cc1 [PHENCYCLIDINE] | AC50 | > 30 µM |
| NS(=O)(=O)c1cc2c(cc1Cl)N=C(CSCc1ccccc1)NS2(=O)=O [BENZTHIAZIDE] | AC50 | > 10 µM |
| CC1(C)S[C@@H]2[C@H](NC(=O)C(C(=O)O)c3ccccc3)C(=O)N2[C@H]1C(=O)O (stereo partly specified) [CARBENICILLIN] | AC50 | > 30 µM |

Fill in: AC50 of CC(CN1c2ccccc2Sc2ccccc21)N(C)C (stereo unspecified) [PROMETHAZINE] is ___
> 10 µM

Ok, now Cc1onc(-c2c(F)cccc2Cl)c1C(=O)N[C@@H]1C(=O)N2[C@@H]1SC(C)(C)[C@@H]2C(=O)O [FLOXACILLIN]
> 30 µM

# repeat for "Oc1cc(O)c(Cl)cn1"
> 30 µM

* * *

# targetDesc: Histamine H3 receptor (Homo sapiens); note: assay procedure not described here
# Sequence (Q9Y5N1 whole entry): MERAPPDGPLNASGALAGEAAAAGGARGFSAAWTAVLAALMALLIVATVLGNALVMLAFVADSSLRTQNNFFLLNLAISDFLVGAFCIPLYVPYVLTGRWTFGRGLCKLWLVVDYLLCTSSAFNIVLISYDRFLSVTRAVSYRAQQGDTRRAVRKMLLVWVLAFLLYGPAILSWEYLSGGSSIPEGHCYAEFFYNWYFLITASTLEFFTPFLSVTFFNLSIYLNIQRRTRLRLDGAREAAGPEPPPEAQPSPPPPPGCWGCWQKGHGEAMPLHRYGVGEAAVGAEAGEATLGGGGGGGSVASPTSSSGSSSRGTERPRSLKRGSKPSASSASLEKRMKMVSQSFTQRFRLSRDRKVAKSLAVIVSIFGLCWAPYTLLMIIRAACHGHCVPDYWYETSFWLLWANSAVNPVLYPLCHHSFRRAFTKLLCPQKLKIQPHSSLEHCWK
quantityMeasured: AC50

| molecule | AC50 |
| --- | --- |
| CCOC(=O)c1ccc(N)cc1 | > 10 µM |

Look up AC50: "CC(C)(O/N=C(\C(=O)N[C@@H]1C(=O)N2C(C(=O)[O-])=C(C[n+]3ccccc3)CS[C@H]12)c1csc(N)n1)C(=O)O"
> 300 µM

# iterate: "COc1cc(C)c(/C=C/C(C)=C/C=C/C(C)=C/C(=O)O)c(C)c1C"
> 10 µM

Moving on to "CCCCOc1ccc(C(=O)CCN2CCCCC2)cc1"
3.9 µM

* * *

# targetDesc: Muscarinic acetylcholine receptor M1 (Homo sapiens); note: assay procedure not described here
# Sequence (P11229 whole entry): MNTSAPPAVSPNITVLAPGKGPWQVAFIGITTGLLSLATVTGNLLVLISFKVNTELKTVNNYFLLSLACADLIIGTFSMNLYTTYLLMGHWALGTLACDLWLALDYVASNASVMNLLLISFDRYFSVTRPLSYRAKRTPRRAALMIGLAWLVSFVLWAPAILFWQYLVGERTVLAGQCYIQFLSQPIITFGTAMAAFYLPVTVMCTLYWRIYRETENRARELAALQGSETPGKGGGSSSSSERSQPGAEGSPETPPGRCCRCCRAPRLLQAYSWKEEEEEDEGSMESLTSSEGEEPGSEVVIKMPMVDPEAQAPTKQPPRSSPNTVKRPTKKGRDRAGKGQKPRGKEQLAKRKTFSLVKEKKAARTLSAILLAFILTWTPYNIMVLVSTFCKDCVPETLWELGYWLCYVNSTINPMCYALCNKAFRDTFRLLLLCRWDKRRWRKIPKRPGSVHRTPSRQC
# Format: functional, cell-based
quantityMeasured: AC50

| compound | targetDesc | AC50 |
| --- | --- | --- |
| COc1cccc(C(=O)CCN[C@@H](C)[C@H](O)c2ccccc2)c1 | Muscarinic acetylcholine receptor M1 (Homo sapiens) | > 30 µM |

Fill blank: measured AC50 of the compound "O=C(O)[C@@H]1C[C@@H](O)CN1" is ____.
> 30 µM

Then this compound: COc1cc(C)c2c(Oc3cccc(C(F)(F)F)c3)c(OC)cc(NC(C)CCCN)c2n1 (configuration not stated)
> 3 µM
